The measurements presented in this section are drawn from ChEMBL document CHEMBL1275421.

# System: Nakaseomyces glabratus
# experimentalDetails: Antifungal activity against Candida glabrata 06-3168 obtained from patient on compound therapy by M27-A2 method
# Type: functional
assayEndpoint: MIC
For clarity, give the value followed by its unit.

1) C[C@@H](c1ncncc1F)[C@](O)(Cn1cncn1)c1ccc(F)cc1F 0.03 µg/mL

-- ask Reported MIC for "CC[C@H](C)C[C@H](C)CCCCCCCCC(=O)N[C@H]1C[C@@H](O)[C@@H](NCCN)NC(=O)[C@@H]2[C@@H](O)CCN2C(=O)[C@H]([C@H](O)CCN)NC(=O)[C@H]([C@H](O)[C@@H](O)c2ccc(O)cc2)NC(=O)[C@@H]2C[C@@H](O)CN2C(=O)[C@H]([C@@H](C)O)NC1=O" : what is it?
-- reply 0.06 µg/mL

====

# System: Nakaseomyces glabratus
# experimentalDetails: Antifungal activity against Candida glabrata 06-3168 obtained from patient on compound therapy by M27-A2 method
# Assay type: functional
*1 amine or outer side, *2 acyl side, *3 side chain or, on linkers, in order; H or OH if unused. Where a SMILES comes first, the peptide text is derived from it. Bridges are numbered along the chain shown (N, C = ends). [ ]: non-standard residue; d: D form. The star is where a group is joined. pTerphenylCO(4''-OnC5H11) = CCCCCOc1ccc(-c2ccc(-c3ccc(C(=O)*)cc3)cc2)cc1; Orn(4R-OH,5R-OH) = O=C([C@H](C[C@@H](O)[C@@H](O)N[*:3])N[*:1])[*:2]; hTyr(3S-OH,4S-OH) = N[C@H](C(=O)O)[C@H](O)[C@@H](O)c1ccc(O)cc1; Pro(3S-OH,4S-Me) = C[C@H]1CN[C@H](C(=O)O)[C@H]1O; Hyp = O=C(O)[C@@H]1C[C@@H](O)CN1
assayEndpoint: MIC (µg/mL)
# output: bare number, implied unit µg/mL

-- ask Reported MIC for CCCCCOc1ccc(-c2ccc(-c3ccc(C(=O)N[C@H]4C[C@@H](O)[C@@H](O)NC(=O)[C@@H]5[C@@H](O)[C@@H](C)CN5C(=O)[C@H]([C@@H](C)O)NC(=O)[C@H]([C@H](O)[C@@H](O)c5ccc(O)cc5)NC(=O)[C@@H]5C[C@@H](O)CN5C(=O)[C@H]([C@@H](C)O)NC4=O)cc3)cc2)cc1 [ANIDULAFUNGIN] ({pTerphenylCO(4''-OnC5H11)}-[Orn(4R-OH,5R-OH)]T[Hyp][hTyr(3S-OH,4S-OH)]T[Pro(3S-OH,4S-Me)]; lactam 1-C) : what is it?
-- reply 0.03

====

# Tested on: Nakaseomyces glabratus
# experimentalDetails: Antifungal activity against Candida glabrata 06-3168 obtained from patient on compound therapy by M27-A2 method
# Type: functional
*1 amine or outer side, *2 acyl side, *3 side chain or, on linkers, in order; H or OH if unused. Where a SMILES comes first, the peptide text is derived from it. Bridges are numbered along the chain shown (N, C = ends). [ ]: non-standard residue; d: D form. The star is where a group is joined. hTyr(3S-OH,4S-OH,3'-OSO3H) = N[C@H](C(=O)O)[C@H](O)[C@@H](O)c1ccc(O)c(OS(=O)(=O)O)c1; Orn(4R-OH,5R-OH) = O=C([C@H](C[C@@H](O)[C@@H](O)N[*:3])N[*:1])[*:2]; Pro(3S-OH,4S-Me) = C[C@H]1CN[C@H](C(=O)O)[C@H]1O; X1 = CCCCCOc1ccc(-c2cc(-c3ccc(C(=O)*)cc3)no2)cc1; Gln(3R-OH) = NC(=O)C[C@@H](O)[C@H](N)C(=O)O; Hyp = O=C(O)[C@@H]1C[C@@H](O)CN1
assayEndpoint: MIC

Record excerpt, results attached:
compound	assayEndpoint	readoutValue
CCCCCOc1ccc(-c2cc(-c3ccc(C(=O)N[C@H]4C[C@@H](O)[C@@H](O)NC(=O)[C@@H]5[C@@H](O)[C@@H](C)CN5C(=O)[C@H]([C@H](O)CC(N)=O)NC(=O)[C@H]([C@H](O)[C@@H](O)c5ccc(O)c(OS(=O)(=O)O)c5)NC(=O)[C@@H]5C[C@@H](O)CN5C(=O)[C@H]([C@@H](C)O)NC4=O)cc3)no2)cc1 [MICAFUNGIN] (X1-[Orn(4R-OH,5R-OH)]T[Hyp][hTyr(3S-OH,4S-OH,3'-OSO3H)][Gln(3R-OH)][Pro(3S-OH,4S-Me)]; lactam 1-C)	MIC	0.06 µg/mL
OC(Cn1cncn1)(Cn1cncn1)c1ccc(F)cc1F [FLUCONAZOLE]	MIC	1 µg/mL

Now consider the entry below.
-- ask Reported MIC for C[C@@H]1[C@H](O)[C@@H](C)/C=C/C=C/C=C/C=C/C=C/C=C/C=C/[C@H](O[C@@H]2O[C@H](C)[C@@H](O)[C@H](N)[C@@H]2O)C[C@@H]2O[C@](O)(C[C@@H](O)C[C@@H](O)[C@H](O)CC[C@@H](O)C[C@@H](O)CC(=O)O[C@H]1C)C[C@H](O)[C@H]2C(=O)O [AMPHOTERICIN B] : what is it?
-- reply 0.125 µg/mL

====

# Tested on: Nakaseomyces glabratus
# experimentalDetails: Antifungal activity against Candida glabrata 06-3170 harboring […] T1896G and D632E mutant obtained from patient on compound therapy by M27-A2 method
# Type: functional
*1 amine or outer side, *2 acyl side, *3 side chain or, on linkers, in order; H or OH if unused. Where a SMILES comes first, the peptide text is derived from it. Bridges are numbered along the chain shown (N, C = ends). [ ]: non-standard residue; d: D form. The star is where a group is joined. hTyr(3S-OH,4S-OH,3'-OSO3H) = N[C@H](C(=O)O)[C@H](O)[C@@H](O)c1ccc(O)c(OS(=O)(=O)O)c1; Orn(4R-OH,5R-OH) = O=C([C@H](C[C@@H](O)[C@@H](O)N[*:3])N[*:1])[*:2]; Pro(3S-OH,4S-Me) = C[C@H]1CN[C@H](C(=O)O)[C@H]1O; X1 = CCCCCOc1ccc(-c2cc(-c3ccc(C(=O)*)cc3)no2)cc1; Gln(3R-OH) = NC(=O)C[C@@H](O)[C@H](N)C(=O)O; Hyp = O=C(O)[C@@H]1C[C@@H](O)CN1
assayEndpoint: MIC

Record excerpt, results attached:
molecule	assayTarget	readoutValue
CC[C@H](C)C[C@H](C)CCCCCCCCC(=O)N[C@H]1C[C@@H](O)[C@@H](NCCN)NC(=O)[C@@H]2[C@@H](O)CCN2C(=O)[C@H]([C@H](O)CCN)NC(=O)[C@H]([C@H](O)[C@@H](O)c2ccc(O)cc2)NC(=O)[C@@H]2C[C@@H](O)CN2C(=O)[C@H]([C@@H](C)O)NC1=O	Nakaseomyces glabratus	> 2 µg/mL
CCCCCOc1ccc(-c2cc(-c3ccc(C(=O)N[C@H]4C[C@@H](O)[C@@H](O)NC(=O)[C@@H]5[C@@H](O)[C@@H](C)CN5C(=O)[C@H]([C@H](O)CC(N)=O)NC(=O)[C@H]([C@H](O)[C@@H](O)c5ccc(O)c(OS(=O)(=O)O)c5)NC(=O)[C@@H]5C[C@@H](O)CN5C(=O)[C@H]([C@@H](C)O)NC4=O)cc3)no2)cc1 [MICAFUNGIN] (X1-[Orn(4R-OH,5R-OH)]T[Hyp][hTyr(3S-OH,4S-OH,3'-OSO3H)][Gln(3R-OH)][Pro(3S-OH,4S-Me)]; lactam 1-C)	Nakaseomyces glabratus	> 2 µg/mL

Now consider the entry below.
-- ask Reported MIC for "OC(Cn1cncn1)(Cn1cncn1)c1ccc(F)cc1F" : what is it?
-- reply 1 µg/mL
